Numbers sourced from patent US11345702B1.

# Target System: 15-PGDH/HPGD (Homo sapiens (Human), UniProt P15428)
# Sequence (P15428 whole entry): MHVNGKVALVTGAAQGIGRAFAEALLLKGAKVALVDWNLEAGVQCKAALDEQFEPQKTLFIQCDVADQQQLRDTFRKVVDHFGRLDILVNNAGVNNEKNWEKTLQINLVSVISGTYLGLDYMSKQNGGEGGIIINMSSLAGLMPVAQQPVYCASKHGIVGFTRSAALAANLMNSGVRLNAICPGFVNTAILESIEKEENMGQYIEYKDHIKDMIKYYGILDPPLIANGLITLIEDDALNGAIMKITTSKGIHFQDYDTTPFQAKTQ
# Assay Text: hPGDH inhibitor screening biochemical assay
# Condition Context: read-out: hPGDH: Average IC50
Metric: IC50

COc1ccc(Cn2cc3cc(-n4ccc5cc(C(=O)N6CCCCC6)cnc54)ccc3n2)cc1 [MF-DH-340]: < 100 nM

# compound O=C(c1cnc2c(c1)c(Cl)cn2-c1cccnc1)N1CCC(F)CC1 [MF-DH-135] ; its IC50 = < 100 nM

# compound O=C(c1cnc2c(c1)ncn2-c1ccc(F)c(F)c1)N1CCCCC1 [MF-DH-217] ; its IC50 = < 100 nM

# compound COc1ccc(Cn2ncc3cc(-n4ccc5cc(C(=O)N6CCCCC6)cnc54)ccc32)cc1 [MF-DH-337] ; its IC50 = < 100 nM

# compound N#Cc1ccc(-n2ccc3cc(C(=O)N4CCC(F)CC4)ncc32)cc1 [MF-DH-463] ; its IC50 = ≥ 1000 nM

* * *

Entries annotated with measured pIC50
# Target System: 15-PGDH/HPGD (Homo sapiens (Human), UniProt P15428)
# Assay Text: hPGDH inhibitor screening biochemical assay
# Condition Context: read-out: hPGDH: Average IC50
# Description: A hydroxyprostaglandin dehydrogenase inhibition screening biochemical assay can be performed to assess the synthesized inhibitors provided herein. Provided herein is an exemplary biochemical assay for hPGDH inhibitor screening. […]
pIC50: −log10 of the molar value.

O=C(c1ccc2c(c1)ncn2-c1cccc(Cl)c1)N1CCC(F)(F)CC1: > 7.00
O=C(c1cnc2c(ccn2-c2ccc(C3(C(=O)O)CC3)cc2)c1)N1CCC(F)(F)CC1: 6.00 to 7.00

# compound `O=C(NC1CCNCC1)c1ccc(-n2ccc3cc(C(=O)N4CCC(F)(F)CC4)cnc32)cc1` ; its pIC50 = > 7.00

# compound `O=C(c1cnc2c(c1)ncn2-c1cccc(OC(F)(F)F)c1)N1CCC(F)CC1` ; its pIC50 = 6.00 to 7.00

# compound `Cc1nc(-c2ccc(-n3ccc4cc(C(=O)N5CCC(F)(F)CC5)cnc43)cn2)no1` ; its pIC50 = > 7.00

# compound `O=C(c1ccc2c(cnn2-c2cccc(Cl)c2)c1)N1CCCCC1` ; its pIC50 = > 7.00

# compound `O=C(c1cnc2c(ccn2-c2ccc(CO)cc2)c1)N1CCC(F)CC1` ; its pIC50 = > 7.00

# compound `O=C(c1ccc2c(c1)CCC(=O)N2c1cccc(Cl)c1)N1CCCCC1` ; its pIC50 = 6.00 to 7.00

# compound `O=C(c1cnc2c(ccn2-c2cscn2)c1)N1CCCCC1` ; its pIC50 = > 7.00

* * *

# Assay Text: Liver microsome stability assay (RLM)
# Type: in vitro ADME
# Condition Context: rat liver microsomes
Metric: RLM + NADPH (% remaining at 45 min) (%)

Worked cases, answers included:
COc1ccc(-n2cnc3cc(C(=O)N4CCC(F)(F)CC4)cnc32)cc1 [MF-PGDH-079]: 87
COc1ccc(-n2ccc3c(C)c(C(=O)N4CCCCC4)cnc32)cc1 [MF-DH-287]: 44
COc1ccc(-n2c(C)nc3cc(C(=O)N4CCCCC4)ccc32)cc1 [MF-DH-206]: 9
COc1ccc(-n2c(C)nc3cc(C(=O)N4CCC(F)CC4)ccc32)cc1 [MF-DH-187]: 17
COc1ccc(-n2cnc3cc(C(=O)N4CCC(F)CC4)cnc32)cc1 [MF-PGDH-078]: 89

a = COc1ccc(Cn2ncc3cc(-n4ccc5cc(C(=O)N6CCCCC6)cnc54)ccc32)cc1 [MF-DH-337]
b = COc1ccc(-n2c(CC#N)nc3cc(C(=O)N4CCC(F)CC4)cnc32)cc1 [MF-DH-130]
Query block: I'm curious whether a or b has the smaller RLM + NADPH (% remaining at 45 min) number. Which is it? Selection: enter the item's label.
Result block: a

P = CCC(CC)n1cnc2cc(C(=O)N3CCC(F)CC3)cnc21 [MF-DH-201]
Q = O=C(c1cnc2c(c1)ncn2-c1cccc(Cl)c1)N1CCCCC1 [MF-PGDH-020]
R = CCc1nc2cc(C(=O)N3CCC(F)CC3)ccc2n1-c1ccc(OC)cc1 [MF-DH-193]
S = COc1ccc(-n2cnc3cc(C(=O)N4CCCCC4)cnc32)cc1 [MF-PGDH-077]
Query block: List items by RLM + NADPH (% remaining at 45 min) in falling order. # answer = labels listed in requested order
Result block: S, P, Q, R
(S: 84%, P: 48%, Q: 23%, R: 0%)

* * *

# Assay Text: Liver microsome stability assay (MLM)
# Type: in vitro ADME
# Condition Context: mouse liver microsomes
Metric: MLM + NADPH (% remaining at 45 min) (%)

Worked cases, answers included:
CS(=O)(=O)NCCNC(=O)c1ccc(-n2ccc3cc(C(=O)N4CCC(F)(F)CC4)cnc32)cc1 [MF-DH-409]: 78
O=C(c1cnc2c(ccn2-c2cccc(-c3nn[nH]n3)c2)c1)N1CCC(F)(F)CC1 [MF-DH-515]: 103
O=C(NCCO)c1ccc(-n2ccc3cc(C(=O)N4CCC(F)(F)CC4)cnc32)cc1 [MF-DH-413]: 94
O=C(NC1CCS(=O)(=O)CC1)c1cc(Cl)cc(-n2ccc3cc(C(=O)N4CCC(F)(F)CC4)cnc32)c1: 81

A = O=C(c1cnc2c(ccn2-c2cc(Cl)cc(C(=O)N3CCS(=O)(=O)CC3)c2)c1)N1CCC(F)(F)CC1
B = CS(=O)(=O)NC(=O)c1ccc(-n2ccc3cc(C(=O)N4CCC(F)(F)CC4)cnc32)cc1 [MF-DH-428]
C = O=C(Nc1ccn(C2CC2)n1)c1cccc(-n2ccc3cc(C(=O)N4CCC(F)(F)CC4)cnc32)c1 [MF-DH-499]
D = CC(C)(C)CNC(=O)c1ccc(-n2ccc3cc(C(=O)N4CCC(F)(F)CC4)cnc32)cn1 [MF-DH-438]
Query block: List items by MLM + NADPH (% remaining at 45 min) in falling order. # answer = labels listed in requested order
Result block: B, D, A, C

a = O=C(c1cnc2c(ccn2-c2cncc(-c3nc[nH]n3)c2)c1)N1CCC(F)(F)CC1 [MF-DH-516]
b = O=C(Nc1ccno1)c1cncc(-n2ccc3cc(C(=O)N4CCC(F)(F)CC4)cnc32)c1 [MF-DH-459]
Query block: Thinking about recorded MLM + NADPH (% remaining at 45 min) values, which is higher, a or b ? Selection: enter the item's label.
Result block: a
(a: 88%, b: 31%)

* * *

# Assay Text: Liver microsome stability assay (MLM)
# Assay type: in vitro ADME
# Condition Context: mouse liver microsomes
Metric: MLM + NADPH (% remaining at 45 min) (%)

O=C(c1cnc2c(ccn2-c2cncc(-c3nnn[nH]3)c2)c1)N1CCC(F)(F)CC1: 116

1 = O=C(Nc1ccn(C2CC2)n1)c1cncc(-n2ccc3cc(C(=O)N4CCC(F)(F)CC4)cnc32)c1
2 = NC(=O)c1ccc(-n2cnc3cc(C(=O)N4CCC(F)(F)CC4)cnc32)cc1
3 = N/C(=N\O)c1ccc(-n2ccc3cc(C(=O)N4CCCCC4)cnc32)cc1
Query block: Rank the items in ascending order with respect to MLM + NADPH (% remaining at 45 min). # answer = labels listed in requested order
Result block: 3, 1, 2
(3: 6%, 1: 60%, 2: 100%)

* * *

# Target System: 15-PGDH/HPGD (Homo sapiens (Human), UniProt P15428)
# Assay Text: hPGDH inhibitor screening biochemical assay
# Condition Context: read-out: hPGDH: Average IC50
pIC50: −log10 of the molar value.
Metric: pIC50

COc1ccccc1C(=O)N(C)c1ccc(C(=O)N2CCCCC2)cc1: ≤ 6.00

# compound `NS(=O)(=O)c1ccc(-n2ccc3cc(C(=O)N4CCC(F)(F)CC4)cnc32)cc1` ; its pIC50 = > 7.00

# compound `O=C(c1ccc2c(ccn2-c2cccc(Cl)c2)c1)N1CCCCC1` ; its pIC50 = > 7.00

# compound `CCc1nc2cc(C(=O)N3CCC(F)CC3)cnc2n1-c1ccc(OC)cc1` ; its pIC50 = 6.00 to 7.00

# compound `O=C(c1ccn2c(-c3cccc(Cl)c3)cnc2c1)N1CCCCC1` ; its pIC50 = > 7.00

* * *

# Target System: 15-PGDH/HPGD (Homo sapiens (Human))
# Assay Text: hPGDH inhibitor screening biochemical assay
# Condition Context: read-out: hPGDH: Average IC50
Metric: IC50

O=C(O)[C@@H]1CCCN1C(=O)c1cccc(-n2ccc3cc(C(=O)N4CCC(F)(F)CC4)cnc32)c1: 100 to 1000 nM

# molecule `O=C(NC1(C(=O)O)CC1)c1ccc(-n2ccc3cc(C(=O)N4CCC(F)(F)CC4)cnc32)cc1` ; its IC50 = < 100 nM

# molecule `CCC(CC)NC(=O)c1ccc(-n2ccc3cc(C(=O)N4CCC(F)(F)CC4)cnc32)cn1` ; its IC50 = < 100 nM

# molecule `COc1ccc(-n2ccc3c(N)c(C(=O)N4CCCCC4)cnc32)cc1` ; its IC50 = < 100 nM

# molecule `CC(C)(CC(=O)O)NC(=O)c1ccc(-n2ccc3cc(C(=O)N4CCC(F)(F)CC4)cnc32)cc1` ; its IC50 = < 100 nM

# molecule `Cc1nc(-c2ccc(-n3c(CCC(C)(C)O)cc4cc(C(=O)N5CCC(F)(F)CC5)cnc43)cc2)no1` ; its IC50 = < 100 nM

# molecule `CNC(=O)c1ccc(-n2ccc3cc(C(=O)N4CCCCC4)cnc32)cc1` ; its IC50 = < 100 nM

# molecule `CN(C(=O)c1ccc2c(c1)ncn2-c1cccc(Cl)c1)C1CC1` ; its IC50 = ≥ 1000 nM
